The reported measurements were obtained from ChEMBL document CHEMBL1201862.

- Test system: SK-MEL-5
- PROTOCOL TEXT: NCI tumour cell line growth inhibition, 48 h
Calls of active or inactive are those of the source. Cut-off read from the data, not from the text of the source: active = GI50 up to about 1.1 µM and inactive = higher.
Could you please pick one outcome from this set? active, inactive

q: Outcome logged for O=NN(CCF)C(=O)NC1CCSCC1 in this assay:
a: inactive

q: Outcome logged for COc1ccc2nc3cc(Cl)ccc3c(NCCCNCc3cc(OC)c(OC)c(OC)c3)c2c1 in this assay:
a: inactive

q: Outcome logged for C=C(CO)CC(O)c1cc(OC)ccc1OC (stereo not drawn) in this assay:
a: inactive

q: Outcome logged for CC1C/C(=C\c2ccc(O)c(O)c2)C(=O)/C(=C/c2ccc(O)c(O)c2)C1 (stereo not drawn) in this assay:
a: inactive

q: Outcome logged for CCCCN(CCCC)C(=O)C(=O)C(C#N)c1ccc(C)cc1 (stereo not drawn) in this assay:
a: inactive

q: Outcome logged for N=C(N)NS(=O)(=O)c1ccc(Nc2c3ccccc3nc3c(C(=O)NCCO)cccc23)cc1 in this assay:
a: active

q: Outcome logged for COC(=O)Cc1cc(O)c(C/C=C(\C)CC/C=C(\C)C(O)C(=O)C=C(C)C)cc1O (stereo not drawn) in this assay:
a: inactive

q: Outcome logged for CC(C)C1=CC23CCC4C(C)(C(=O)O)CCCC4(C)C2CC1C1C(=O)N(c2ccc(Cc4ccc(N5C(=O)C6C7CC8C9(C)CCCC(C)(C(=O)O)C9CCC8(C=C7C(C)C)C6C5=O)cc4)cc2)C(=O)C13 (stereo not drawn) in this assay:
a: inactive

q: Outcome logged for COc1ccc(NC2Oc3cc4c(cc3C(c3cccc(OC)c3OC)C2C)OCO4)cc1 (stereo not drawn) in this assay:
a: inactive

q: Outcome logged for Cc1nc(Nc2ccc(Cl)cc2)sc1C(=O)NNC(=S)NN in this assay:
a: inactive

q: Outcome logged for O=C(NCCNCCNC(=O)c1cc(-c2ccccc2)nc2ccccc12)c1cc(-c2ccccc2)nc2ccccc12 in this assay:
a: inactive

q: Outcome logged for CC(=O)O[C@H]1CC[C@@]2(C)C(=CC[C@@H]3C2CC[C@]2(C)C(=O)NC(=O)CC32)C1 (stereo partly drawn) in this assay:
a: inactive

q: Outcome logged for CCOC(=O)c1cnc2[nH]c(=O)c3ccccc3n2c1=O in this assay:
a: inactive

q: Outcome logged for O=C1N2CCc3c([nH]c4ccccc34)C23CC2CCCCC12S3 (stereo not drawn) in this assay:
a: inactive

q: Outcome logged for NCCc1ccc2c(c1)C(=O)c1c(O)ccc(O)c1C2=O in this assay:
a: active

q: Outcome logged for C(=N\c1ccc2c(c1)Cc1ccccc1-2)/c1ccccn1 in this assay:
a: inactive

q: Outcome logged for O=C(N/N=C\c1cccc2ccccc12)Nc1cccc2ccccc12 in this assay:
a: inactive

q: Outcome logged for CN(C)CCCCN1c2ccccc2Sc2ccc(N=[N+]=[N-])cc21 in this assay:
a: inactive

q: Outcome logged for C/C(CC1C2CCCC1C2)=N\NC(N)=O (stereo not drawn) in this assay:
a: inactive

q: Outcome logged for COC(=O)OCC1OC(N2C(=O)NC(=O)C(Br)C2N=[N+]=[N-])CC1OC(=O)OC (stereo not drawn) in this assay:
a: inactive

q: Outcome logged for COC(=O)c1cc2c(cc1CC(Cc1ccc3c(c1)CCCC3)C(=O)OC)CCCC2 (stereo not drawn) in this assay:
a: inactive

q: Outcome logged for Fc1cccc(F)c1C1SCc2nc3cc(Cl)ccc3n21 (stereo not drawn) in this assay:
a: inactive

q: Outcome logged for [N-]=[N+]=NCc1cccc(Nc2cc(=O)[nH]c(=O)[nH]2)c1 in this assay:
a: inactive

q: Outcome logged for COc1ccc(C2C(C#N)=C(S)N(C3OC(CO)C(O)C(O)C3O)C(C)=C2C(C)=O)cc1 (stereo not drawn) in this assay:
a: inactive

q: Outcome logged for COc1nc(O)c(N)c(NC2OC(CO)C(O)C(O)C2O)n1 (stereo not drawn) in this assay:
a: inactive

q: Outcome logged for O=C1NC(=O)/C(=C/c2ccc(S(=O)(=O)N/N=C/c3ccccc3)cc2)N1 in this assay:
a: inactive

q: Outcome logged for COC(=O)/C1=C/c2c([nH]c3ccccc23)/C(C(=O)OC)=C\c2c1[nH]c1ccccc21 in this assay:
a: inactive

q: Outcome logged for CC1(C)c2ccccc2C(C)(C)C(C(=O)Nc2ccccc2)C1C(=O)O (stereo not drawn) in this assay:
a: inactive

q: Outcome logged for O=c1c2cc(I)ccc2nc(-c2cccs2)n1Nc1ccccc1 in this assay:
a: inactive

q: Outcome logged for COC(=O)C(C(=O)C(=O)Nc1ccc([N+](=O)[O-])cc1)c1nc2ccc([N+](=O)[O-])cc2nc1O (stereo not drawn) in this assay:
a: inactive

q: Outcome logged for O=C(NCCCNC(=O)c1ccc2cc(O)c(O)cc2c1)c1ccc2cc(O)c(O)cc2c1 in this assay:
a: inactive

q: Outcome logged for CN(C)NC1=NS(=O)(=O)c2cc3c(cc2S1)N(N(C)C)C(=O)c1cc2c(cc1N(N(C)C)C3=O)SC(NN(C)C)=NS2(=O)=O in this assay:
a: inactive

q: Outcome logged for CC1C2CC(CC2N)C1(C)C (stereo not drawn) in this assay:
a: inactive

q: Outcome logged for COc1cccc2c(SCC(=O)Nc3ccccc3-c3ccccc3NC(=O)CSc3c4ccccc4nc4c(OC)cccc34)c3ccccc3nc12 in this assay:
a: inactive

q: Outcome logged for CCc1ccccc1NC(=O)C(=O)C(C(=O)c1ccc(OC)cc1)c1ccc(OC)cc1 (stereo not drawn) in this assay:
a: inactive

q: Outcome logged for Cc1ccccc1C1OC1C(=O)c1ccccc1N (stereo not drawn) in this assay:
a: inactive

q: Outcome logged for CCCOC(=O)CCC(NC(=O)c1ccc(Nc2nc3ccccc3nc2-c2cccs2)cc1)C(=O)OCCC (stereo not drawn) in this assay:
a: inactive

q: Outcome logged for Cc1nc2ccccc2c(=O)n1-c1ccccc1F in this assay:
a: inactive

q: Outcome logged for CCCCCCC/C=C1\CCC(CN(C)C)C1=O (stereo not drawn) in this assay:
a: inactive

q: Outcome logged for [N-]=[N+]=NCc1nc(N)c2c3c(sc2n1)CCCC3 in this assay:
a: inactive

q: Outcome logged for Brc1ccc2c(c1)-c1nc3c(cc1CC2)CCc1ccc(Br)cc1-3 in this assay:
a: inactive

q: Outcome logged for NCCc1nc(-c2nc(C(=O)O)cs2)cs1 in this assay:
a: inactive

q: Outcome logged for CC(=O)NC1C(OCc2ccccc2)OC(CO)C(O)C1OC(C)C(=O)NC(C)C(=O)N[C@@H](CCC(=O)OCCCNC1c2ccccc2Nc2cccc([N+](=O)[O-])c21)C(N)=O (stereo partly drawn) in this assay:
a: active

###

- Tested on: HOP-62
- PROTOCOL TEXT: NCI tumour cell line growth inhibition, 48 h
Active and inactive are the calls of the source. No stated cut-off is given here; in the data, active = GI50 up to about 1.1 µM and inactive = higher. Where a SMILES comes first, the peptide text is derived from it. [ ]: non-standard residue; d: D form. The star is where a group is joined. ξ: configuration not given here. ξF = NC(Cc1ccccc1)C(=O)O; Cbz = O=C(OCc1ccccc1)*; Aib = CC(C)(N)C(=O)O
MEASUREMENT KIND: GI50

q: If you can, please state the reported GI50 value of CC1(C)N=C(C2CCCN2C(=O)OCc2ccccc2)OC1=O (stereo unspecified) .
a: > 100 µM (inactive)

q: If you can, please state the reported GI50 value of CC1C2CC(CC2N)C1(C)C (stereo unspecified) .
a: > 100 µM (inactive)

q: If you can, please state the reported GI50 value of CCC(C(C)N1CC(=O)NC(=O)C1)N1CC(=O)NC(=O)C1 (stereo unspecified) .
a: 7.01 µM (inactive)

q: If you can, please state the reported GI50 value of O=C(NCCCNC(=O)c1ccc2cc(O)c(O)cc2c1)c1ccc2cc(O)c(O)cc2c1 .
a: 25.1 µM (inactive)

q: If you can, please state the reported GI50 value of Cc1ccc(S(=O)(=O)NC(=O)Nc2nc(Cl)cc(Cl)n2)cc1 .
a: > 100 µM (inactive)

q: If you can, please state the reported GI50 value of Nc1nc2c(ncn2C2OC(CO)C(O)C2O)c(=O)o1 (stereo unspecified) .
a: > 100 µM (inactive)

q: If you can, please state the reported GI50 value of CCOC(=O)C1(Cc2ccccc2)Cc2cc3c(cc2C1=O)CCC3 (stereo unspecified) .
a: > 100 µM (inactive)

q: If you can, please state the reported GI50 value of NCCCNC1(c2cc3ccccc3s2)CCCCC1 .
a: 10.7 µM (inactive)

q: If you can, please state the reported GI50 value of CC1=C(C(=O)Nc2c(C)cccc2C)C(c2ccc3c(c2)OCO3)C(C(=O)Nc2c(C)cccc2C)=C(C)N1 .
a: 23.1 µM (inactive)

q: If you can, please state the reported GI50 value of COC(=O)C(C)(C)NC(=O)C(Cc1ccccc1)NC(=O)C(C)(C)NC(=O)OCc1ccccc1 (stereo unspecified) (Cbz-[Aib]-[ξF]-[Aib]-OMe) .
a: > 100 µM (inactive)

q: If you can, please state the reported GI50 value of CC1(C)CC23C4COC(=O)C2CCC1C3CC4=O (stereo unspecified) .
a: 24.4 µM (inactive)

q: If you can, please state the reported GI50 value of O=c1c2sc3ccccc3sc=2c(=O)c2c(Cl)c(Cl)c(Cl)c(Cl)c12 .
a: > 100 µM (inactive)

q: If you can, please state the reported GI50 value of CC(C)C1=CC23CCC4C(C)(C(=O)O)CCCC4(C)C2CC1C1C(=O)N(c2ccc(Cc4ccc(N5C(=O)C6C7CC8C9(C)CCCC(C)(C(=O)O)C9CCC8(C=C7C(C)C)C6C5=O)cc4)cc2)C(=O)C13 (stereo unspecified) .
a: 11.6 µM (inactive)

q: If you can, please state the reported GI50 value of NCCSCc1ccccc1Cl .
a: 40.6 µM (inactive)

q: If you can, please state the reported GI50 value of C=CC[C@H]1C[C@@]2(C)OC[C@H](C(C)C)N2C1=O .
a: > 100 µM (inactive)

q: If you can, please state the reported GI50 value of O=c1c2cc(I)ccc2nc(-c2cccs2)n1Nc1ccccc1 .
a: 18.8 µM (inactive)

q: If you can, please state the reported GI50 value of COc1ccc(NC2=NCCO2)c2ccccc12 .
a: > 10 µM (inactive)

q: If you can, please state the reported GI50 value of COc1nc(O)c(N)c(NC2OC(CO)C(O)C(O)C2O)n1 (stereo unspecified) .
a: > 100 µM (inactive)

q: If you can, please state the reported GI50 value of O=C1/C(=C\c2ccc(F)cc2)CCOc2c1ccc1ccccc21 .
a: 26.8 µM (inactive)

q: If you can, please state the reported GI50 value of COc1ccc2c(c1)[n+]([O-])c(C(=O)C/C(=N/NC(=O)C[N+](C)(C)C)C(=O)Nc1cccc(C)c1C)c(C)[n+]2[O-] .
a: > 100 µM (inactive)

q: If you can, please state the reported GI50 value of Cc1ccccc1NC(=O)CC(=O)N1N=C(N2c3ccccc3Sc3ccccc32)CC1c1ccccc1 (stereo unspecified) .
a: > 100 µM (inactive)
